System: UACC-62 melanoma
Experiment: NCI tumour cell line growth inhibition, 48 h
ASSAY READOUT: GI50

> print(dat)
                               query.smiles  assay.readout  test.value
1  CNC(=O)c1cc(N2CCc3cc(NC(=O)Nc4ccc(N5CCN(C)CC5)c(C(F)(F)F)c4)ccc32)ccn1           GI50     4.48 µM
2    CC(=O)/C(N=Nc1ccc2oc(=O)ccc2c1)=C(\C)O           GI50     2.64 µM
3  CC1=C2C(=C[C@@](C)(COC(=O)c3ccc(S(=O)(=O)F)cc3)[C@@H]2OC(=O)c2ccc(S(=O)(=O)F)cc2)C(=O)[C@](C)(O)C12CC2           GI50     1.64 µM
4  CC1=C(C)C(=O)C(Nc2cccc(C(F)(F)F)c2)=C(Cl)C1=O           GI50     3.46 µM

----------
Test system: HT29 colon
Assay: NCI tumour cell line growth inhibition, 48 h; in the data active means GI50 below about 0.43 µM; inactive means the rest
Outcome codes: 1 (active), -1 (inactive)

> print(dat)
                               query.smiles  class
1  COc1ccc([C@@H]2[C@@H](O)C(=O)N2c2cc(OC)c(OC)c(OC)c2)cc1F      1
2  CC1=C(C)C(=O)C(Nc2cccc(C(F)(F)F)c2)=C(Cl)C1=O     -1
3  CNC(=O)c1cc(N2CCc3cc(NC(=O)Nc4ccc(N5CCN(C)CC5)c(C(F)(F)F)c4)ccc32)ccn1     -1

These data points were gathered from PubChem BioAssay (NCI).
